The variants listed here are annotated with their yeast fitness.
B1: tRNA (parent)
chain: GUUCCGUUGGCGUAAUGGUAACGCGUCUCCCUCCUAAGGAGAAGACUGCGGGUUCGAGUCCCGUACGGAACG

- Variants of: B1
- Assay Details: yeast fitness relative to wild type (ratio to wild type); higher = fitter; tRNA-Arg(CCU), competitive growth, 37 C, YPD
This sample holds only a part of the variants without activity.

C5G C24U A43U C55U G68C :: ≤ 0.5
C5A A14U C24U A40C :: 0.564
G17A A20C C24U :: 0.562

Name the reported yeast fitness value associated with the variant U3A U32G G63C C66U
≤ 0.5

Name the reported yeast fitness value associated with the variant C5U G17C C29A C46G G56A
≤ 0.5

Name the reported yeast fitness value associated with the variant C4U C33A A40U
0.564

Name the reported yeast fitness value associated with the variant U2A G12C C34G A65U
≤ 0.5

Name the reported yeast fitness value associated with the variant A20C C29A
0.635

Name the reported yeast fitness value associated with the variant C5U C24A
0.597
